Assign Metab. Stabil. (m) to each entry below.
# assayName: rat microsomal stability (RLM)
# conditionLabel: microsomal half-life
One number for each entry, in m.

compound="CC1=C(C(=O)Nc2cc(B(O)O)ccn2)C(c2ccc(C)cc2Cl)N=C(Nc2nc3ccc(F)cc3o2)N1 (stereo not shown) [Compound 92]" metric="Metab. Stabil. (m)" endpointunit=m valuemeasured=14.13

The record that follows has no Metab. Stabil. (m) shown yet.
Dear colleague, I am looking for the recorded Metab. Stabil. (m) of the following compound: CC1=C(C(=O)NCc2cnn(C)c2)C(c2ccccc2Cl)N=C(Nc2nc3ccc(F)cc3o2)N1 (stereo not shown) [Compound 44]
26
